Cited source for all entries: patent US20030068802A1

Biological target: purified AcpS of S. pneumoniae (Streptococcus pneumoniae)
Construct: made in house; host or cells: E. coli BL21 (pLysS)/pRBP-19 (pET-11a)
Sequence (P0A2W7 1-120): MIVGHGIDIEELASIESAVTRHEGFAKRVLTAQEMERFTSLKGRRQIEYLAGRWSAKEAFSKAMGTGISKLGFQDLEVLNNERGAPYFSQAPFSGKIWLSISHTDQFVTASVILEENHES
Assay: HPLC-based AcpS enzyme assay (conversion of apo-ACP to holo-ACP)
Format: biochemical
Conditions: CoA = 100; 1.5 μM apo-ACP, 20 μM CoA or CoA derivative, 19 nM AcpS
assayReadout: relative activity as substrate of AcpS
Respond with the number and no other words.

Task item: Output reported relative activity as substrate of AcpS of the compound `CC(=O)CC(=O)SCCNC(=O)CCNC(=O)[C@H](O)C(C)(C)COP(=O)(O)OP(=O)(O)OC[C@H]1O[C@@H](n2cnc3c(N)ncnc32)[C@H](O)[C@@H]1OP(=O)(O)O` on purified AcpS of S. pneumoniae (Streptococcus pneumoniae).
Reply: 65

Task item: Enter recorded relative activity as substrate of AcpS with purified AcpS of S. pneumoniae (Streptococcus pneumoniae) for `CC(C)(COP(=O)(O)OP(=O)(O)OC[C@H]1O[C@@H](n2cnc3c(N)ncnc32)[C@H](O)[C@@H]1OP(=O)(O)O)[C@@H](O)C(=O)NCCC(=O)NCCSC(=O)CC(=O)O` here.
Reply: 12

Task item: Report relative activity as substrate of AcpS from purified AcpS of S. pneumoniae (Streptococcus pneumoniae) testing of `CC(C)(COP(=O)(O)OP(=O)(O)OC[C@H]1O[C@@H](n2cnc3c(N)ncnc32)[C@H](O)[C@@H]1OP(=O)(O)O)[C@@H](O)C(=O)NCCC(=O)NCCS`
Reply: 100

----------
Target: purified AcpS of S. pneumoniae (Streptococcus pneumoniae, UniProt P0A2W7)
Construct: made in house; host or cells: E. coli BL21 (pLysS)/pRBP-19 (pET-11a)
Sequence (P0A2W7 1-120): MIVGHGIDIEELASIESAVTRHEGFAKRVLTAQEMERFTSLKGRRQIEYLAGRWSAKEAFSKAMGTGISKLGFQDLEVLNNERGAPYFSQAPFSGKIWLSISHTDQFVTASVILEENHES
Assay: HPLC-based AcpS enzyme assay (conversion of apo-ACP to holo-ACP)
Type: biochemical
Conditions: CoA = 100; 1.5 μM apo-ACP, 20 μM CoA or CoA derivative, 19 nM AcpS
assayReadout: relative activity as substrate of AcpS

Guide cases for relative activity as substrate of AcpS, answers given:
• CCNC(=O)CCNC(=O)[C@H](O)C(C)(C)COP(=O)(O)OP(=O)(O)OC[C@H]1O[C@@H](n2cnc3c(N)ncnc32)[C@H](O)[C@@H]1OP(=O)(O)O [desulfo-CoA] = 76
• CC(C)(COP(=O)(O)OP(=O)(O)OC[C@H]1O[C@@H](n2cnc3c(N)ncnc32)[C@H](O)[C@@H]1O)[C@@H](O)C(=O)NCCC(=O)NCCS [dephospho-CoA] = 0

Turning to the following compound.
Task item: Note down relative activity as substrate of AcpS recorded for CC(=O)SCCNC(=O)CCNC(=O)[C@H](O)C(C)(C)COP(=O)(O)OP(=O)(O)OC[C@H]1O[C@@H](n2cnc3c(N)ncnc32)[C@H](O)[C@@H]1OP(=O)(O)O [acetyl-CoA]
Reply: 91
